# EXPERIMENTAL_TARGET: UniProt:Q8R0V5
# Sequence (Q8R0V5 whole entry): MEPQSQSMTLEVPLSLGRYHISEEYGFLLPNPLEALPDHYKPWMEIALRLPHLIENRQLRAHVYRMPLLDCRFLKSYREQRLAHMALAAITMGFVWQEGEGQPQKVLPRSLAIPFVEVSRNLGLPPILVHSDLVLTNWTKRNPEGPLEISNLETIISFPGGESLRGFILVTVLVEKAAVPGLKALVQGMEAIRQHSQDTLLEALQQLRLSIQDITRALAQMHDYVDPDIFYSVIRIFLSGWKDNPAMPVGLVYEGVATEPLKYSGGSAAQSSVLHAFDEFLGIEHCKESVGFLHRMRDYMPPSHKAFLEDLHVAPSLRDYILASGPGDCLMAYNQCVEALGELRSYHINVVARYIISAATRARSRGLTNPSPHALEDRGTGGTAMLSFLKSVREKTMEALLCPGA
# TEST: Inhibition of mouse IDO2 expressed in human T-REx cells using L-tryptophan as substrate after 20 hrs
Entries annotated with measured log10 IC50
ASSAY_READOUT: log10 IC50 (log10 of the value in µM)

COMPOUND | EXPERIMENTAL_TARGET | EXPERIMENTAL_VALUE
NOC(CCCC(=O)Nc1ccccc1)c1cccc(Cl)c1 (configuration not stated) | UniProt:Q8R0V5 | 1.56
NOC(c1ccc(F)cc1)c1ccc(F)cc1 | UniProt:Q8R0V5 | 1.08
NOC(c1ccccc1)c1cccc(F)c1 (configuration not stated) | UniProt:Q8R0V5 | 1.00
NOC(c1ccccc1)c1ccccc1F (configuration not stated) | UniProt:Q8R0V5 | 1.48
O=C1CC(c2c[nH]c3ccc(F)cc23)C(=O)N1 (configuration not stated) | UniProt:Q8R0V5 | 2.51
NOC(c1ccccc1)c1ccc(Cl)c(Cl)c1 (configuration not stated) | UniProt:Q8R0V5 | 1.29
NOC(c1ccccc1)c1ccsc1 (configuration not stated) | UniProt:Q8R0V5 | 1.70
